I'd be grateful if you could share measured log10 MIC E. cloacae NCTC 13405 for these entries.
test system: E. cloacae NCTC 13405; test: Broth microdilution MIC/MBC, E. cloacae; format: cell-based, Enterobacter cloacae; details: value before the parentheses; two values = two repeats
Units before log transform: µM; reported quantity: MIC E. cloacae NCTC 13405; transform: log10.

response.value for CC[PH](CC)(CC)[Au][S]C1OC(CO)C(O)C(O)C1O (stereo not shown) [Compound 10] (field: log10 MIC E. cloacae NCTC 13405) = 1.80

response.value for CC[PH](CC)(CC)[Au][O]C1OC(CO)C(OC2OC(CO)C(O)C(O)C2O)C(O)C1O (stereo not shown) (field: log10 MIC E. cloacae NCTC 13405) = 2.28

response.value for CC[PH](CC)(CC)[Au][S][C@@H]1O[C@H](COC(C)=O)[C@@H](OC(C)=O)[C@H](OC(C)=O)[C@H]1OC(C)=O [Compound 1, reference compound] (field: log10 MIC E. cloacae NCTC 13405) = 2.28

response.value for "CC[P+](CC)(CC)[Au-][S]CC(F)(F)F" (field: log10 MIC E. cloacae NCTC 13405) = 1.57

response.value for "CC[PH](CC)(CC)[Au][S]c1ccccc1" (field: log10 MIC E. cloacae NCTC 13405) = 1.88

response.value for CP(C)C.[Cl][Au] [Compound 24, (Trimethylphosphine)gold Chloride] (field: log10 MIC E. cloacae NCTC 13405) = 0.48

response.value for CC[PH](CC)(CC)[Au][S]C1OC(CO)C(O)C(O)C1O (stereo not shown) [Compound 11] (field: log10 MIC E. cloacae NCTC 13405) = 2.10

response.value for CC[P+](CC)(CC)[Au-][S][C@@H]1OC(CO)[C@@H](O)[C@H](O)C1NC(C)=O (stereo partly shown) (field: log10 MIC E. cloacae NCTC 13405) = 2.06

response.value for CC[PH](CC)(CC)[Au][S]C1OC(CO)C(OC2OC(CO)C(O)C(O)C2O)C(O)C1O (stereo not shown) (field: log10 MIC E. cloacae NCTC 13405) = 2.28
